Tested on: ATP;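 note: ATP exposure 15 min at 22 °C before imaging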
Assay: switch fluorescence ratio, 500 uM ATP over buffer (Cy3 cluster intensity, sum of 5 cycles each) (fold (ratio)); higher = stronger signal-on switching upon ATP binding; sequences stand for … in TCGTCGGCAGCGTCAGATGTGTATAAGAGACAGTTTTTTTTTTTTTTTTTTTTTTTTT…TC
Conditions: aptamer strand: ATP DNA aptamer (quencher-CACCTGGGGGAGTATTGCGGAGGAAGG + anchor), 100 nM annealed; ATP concentration: 500 uM
Give measured switch fluorescence ratio for each item. Keep answers brief.

1) TTTACAGGGT :: 1.03
2) ATGTCGACAG :: 1
3) CAAAATTGCA :: 1.02
4) TAAGGGAGTG :: 0.976
5) CTCAGTATCG :: 1.01

Give switch fluorescence ratio for each listed item.
1. GTGGCGCCGC
2. CGTGTTAATG
3. GTACGGGGTT
4. GCTGTTTGCT
5. TAAGTTTTTA
6. CTTCTTGTGG

OUTPUT:
1. 0.959
2. 0.989
3. 0.993
4. 1.01
5. 1.03
6. 0.992

Give one value of switch fluorescence ratio per listed sequence.
1. GTGGTTAGAA
2. TCATGTTAGG
3. AAAGAGTCGT
4. AACACGTATA
5. CTATAATCTA
6. TGGGATCAAG
7. TTTTGTTGGC
8. GTGAGGCCGC

OUTPUT:
[0.984, 0.994, 0.988, 1.23, 0.976, 1, 1.04, 1.06]

INPUT: Please provide the recorded switch fluorescence ratio for GACTTTGGGC , tested on ATP.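 Note: ATP exposure 15 min at 22 °C before imaging.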
OUTPUT: 1.01

====

System: ATP;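 note: ATP exposure 15 min at 22 °C before imaging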
Experiment: switch fluorescence ratio, 500 uM ATP over buffer (Cy3 cluster intensity, sum of 5 cycles each) (fold (ratio)); higher = stronger signal-on switching upon ATP binding; sequences stand for … in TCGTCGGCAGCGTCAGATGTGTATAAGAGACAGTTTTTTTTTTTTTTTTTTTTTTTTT…TC
Conditions: aptamer strand: ATP DNA aptamer (quencher-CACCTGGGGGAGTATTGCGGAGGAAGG + anchor), 100 nM annealed; ATP concentration: 500 uM
assay-readout: switch fluorescence ratio
One number for each entry.

1) TTTTTAGTGG :: 0.981
2) ACTGTGTGGC :: 0.992
3) AAAGATGAGG :: 0.974

# batch: return switch fluorescence ratio for each of the 2 sequences below
1. TAATGGGGGA
2. GGTGCTGCTA

OUTPUT:
1.01
0.984

Give switch fluorescence ratio for each of the items listed below.
1. AAGGCGTAC
2. ATAACTACTA
3. TAAAGGGGCT

OUTPUT:
1.24
1.06
1.04

// input: 3 sequences below; output: switch fluorescence ratio for each
1. CGTTTCAAGA
2. TTCCGCCGCT
3. TCTGCTACAA

OUTPUT:
[0.976, 2.34, 1.02]

====

Tested on: ATP;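 note: ATP exposure 15 min at 22 °C before imaging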
Assay: switch fluorescence ratio, 500 uM ATP over buffer (Cy3 cluster intensity, sum of 5 cycles each) (fold (ratio)); higher = stronger signal-on switching upon ATP binding; sequences stand for … in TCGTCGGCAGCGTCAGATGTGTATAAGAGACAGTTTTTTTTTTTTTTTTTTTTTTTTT…TC
Conditions: aptamer strand: ATP DNA aptamer (quencher-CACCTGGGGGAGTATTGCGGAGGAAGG + anchor), 100 nM annealed; ATP concentration: 500 uM
Could you please report measured switch fluorescence ratio for the items listed next?
One number for each entry.

1) TAAGTCATTG :: 0.985
2) CTTGTATTAC :: 1.16
3) CATGGCACTT :: 1.01
4) GGGTGCGCTG :: 1.03
5) AATGATTGCG :: 1

Give one value of switch fluorescence ratio per listed sequence.
1. GGTTTAGAGC
2. CGTAGGAATT
3. CGTGGGACTG
4. AATGAGGGGT
5. AGTTAACCGG
6. TGCAGAAATT
7. CGGTTTCTGT
8. CTGATACTGG

OUTPUT:
1. 1.01
2. 1.07
3. 1.02
4. 0.966
5. 1.01
6. 0.98
7. 0.981
8. 0.997

====

Test system: ATP;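 note: ATP exposure 15 min at 22 °C before imaging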
Experiment: switch fluorescence ratio, 500 uM ATP over buffer (Cy3 cluster intensity, sum of 5 cycles each) (fold (ratio)); higher = stronger signal-on switching upon ATP binding; sequences stand for … in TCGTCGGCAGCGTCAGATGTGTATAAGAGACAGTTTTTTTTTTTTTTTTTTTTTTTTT…TC
Conditions: aptamer strand: ATP DNA aptamer (quencher-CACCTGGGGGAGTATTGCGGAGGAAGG + anchor), 100 nM annealed; ATP concentration: 500 uM
Please respond with reported switch fluorescence ratio for every item in the list.
Give bare numbers.

Answered cases to consult:
1. TGGCTTTTAC :: 1.09
2. CTTCGTGACA :: 1.04

Hi! Can you tell me switch fluorescence ratio for each of these sequences?
1. GGTAGAGGGC
2. GGGGCGGCAG
3. AAGGGGGAGT
4. TTGTCCGGGG
5. TATGTCCGTA
6. TGGGTGTTTG
7. TAGCAGACGG

OUTPUT:
[0.973, 0.998, 0.996, 1.01, 1, 1.03, 1.03]

Provide switch fluorescence ratio values for the following items, in order.
1. TTGGGCGAGC
2. ATCAATGTGC
3. TATAATGGGC
4. CATCGGAGGG

OUTPUT:
1. 0.974
2. 0.962
3. 0.965
4. 1.02

====

Tested on: ATP;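 note: ATP exposure 15 min at 22 °C before imaging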
Assay: switch fluorescence ratio, 500 uM ATP over buffer (Cy3 cluster intensity, sum of 5 cycles each) (fold (ratio)); higher = stronger signal-on switching upon ATP binding; sequences stand for … in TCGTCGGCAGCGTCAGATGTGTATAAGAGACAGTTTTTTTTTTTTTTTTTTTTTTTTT…TC
Conditions: aptamer strand: ATP DNA aptamer (quencher-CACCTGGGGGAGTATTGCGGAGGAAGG + anchor), 100 nM annealed; ATP concentration: 500 uM
// label = Criterion met if switch fluorescence ratio is not less than 1, otherwise Criterion not met

1) AATGTGAGAC :: Criterion met

INPUT: Form field: switch fluorescence ratio at least 1? Entry: TGGGAGGACG
OUTPUT: Criterion not met

INPUT: Please indicate if the recorded switch fluorescence ratio for CGGAAAAATC meets or exceeds 1.
OUTPUT: Criterion met

INPUT: Dear colleague, could you confirm whether TTTTTAATTC has switch fluorescence ratio at or above 1?
OUTPUT: Criterion met

====

Test system: ATP;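 note: ATP exposure 15 min at 22 °C before imaging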
Test: switch fluorescence ratio, 500 uM ATP over buffer (Cy3 cluster intensity, sum of 5 cycles each) (fold (ratio)); higher = stronger signal-on switching upon ATP binding; sequences stand for … in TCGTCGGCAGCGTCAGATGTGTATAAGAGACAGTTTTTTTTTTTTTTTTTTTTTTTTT…TC
Conditions: aptamer strand: ATP DNA aptamer (quencher-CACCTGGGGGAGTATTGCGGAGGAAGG + anchor), 100 nM annealed; ATP concentration: 500 uM
assay-readout: switch fluorescence ratio

Before answering, review these 5 worked examples.
1) ATTGTCGACT :: 0.968
2) TAGTGAAAGA :: 0.986
3) ATCTATGGGT :: 0.987
4) GTCATTAACT :: 1.02
5) ATAATTTTTT :: 1.03

Return reported switch fluorescence ratio values for all items listed beneath this line.
1. ACCTTTTTAG
2. ATGAGGAGTT
3. TAGTTATGAA
4. ATGTCGTCTC
5. GTCTGAAGGA
6. GGGGCCGGGG

OUTPUT:
[1.02, 0.996, 1.01, 1, 0.979, 1.01]

Hey, quick one: what's switch fluorescence ratio for each of these?
1. TTTGACAAAC
2. AAGAATTTTG
3. ATTCCGGTGG
4. TTTATGTTCG
5. GGGATTCCTG

OUTPUT:
1.1
0.999
0.989
0.99
0.978

Go through the list and state switch fluorescence ratio for each entry.
1. CCGGGTTAGT
2. AGCATATAGG

OUTPUT:
1. 1.06
2. 1.01

Value sought for every listed sequence: switch fluorescence ratio.
1. AGTTGGGTGT
2. TTGATTGCTT

OUTPUT:
1.01
0.972

====

Test system: ATP;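 note: ATP exposure 15 min at 22 °C before imaging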
Test: switch fluorescence ratio, 500 uM ATP over buffer (Cy3 cluster intensity, sum of 5 cycles each) (fold (ratio)); higher = stronger signal-on switching upon ATP binding; sequences stand for … in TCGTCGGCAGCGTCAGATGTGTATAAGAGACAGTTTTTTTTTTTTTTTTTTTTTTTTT…TC
Conditions: aptamer strand: ATP DNA aptamer (quencher-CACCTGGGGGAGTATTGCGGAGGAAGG + anchor), 100 nM annealed; ATP concentration: 500 uM
Decision: switch fluorescence ratio >= 1 yields MET, all other cases yield NOT MET.

1. CTAACGGACT :: MET
2. TATACTTGGC :: MET
3. GGGTTAACCT :: MET
4. GGTTGATTTA :: MET
5. TTCGAGCGAT :: MET
6. GCTGGAGGAA :: MET
7. TCTGGTTTGT :: MET
8. GGTTTCGGCG :: NOT MET
9. TGACACAGTA :: MET
10. CGAAATCATC :: MET

INPUT: Form field: switch fluorescence ratio at least 1? Entry: GGCGTTCTTG
OUTPUT: NOT MET

INPUT: Check the entry AGTCCTCGGA : does switch fluorescence ratio equal or exceed 1?
OUTPUT: NOT MET

INPUT: Please indicate if the recorded switch fluorescence ratio for GCGGATAGAA meets or exceeds 1.
OUTPUT: MET

INPUT: // inclusive: switch fluorescence ratio at least 1? input: GTGGGAACCT
OUTPUT: MET

INPUT: Hi team, for TTCGATTGTT , is the recorded switch fluorescence ratio at or above 1?
OUTPUT: NOT MET

INPUT: In plain terms: is recorded switch fluorescence ratio at least 1 for CCTAAATACC ?
OUTPUT: MET
